- target-under-test: Shiga toxin 2 (Escherichia coli O157:H7) (UniProt P09385+P09386)
- method-notes: E. coli 0.157:H7 Shiga Toxin SOP - stx2 screening assay
- Assay type: functional
- Set-up: scale not given: direction of the effect not stated beside the values
- condition-details: 30 µM
Listing of recorded Percent Effect by entry.
endpoint-label: Percent Effect (%)

| compound | endpoint-result |
| --- | --- |
| CC(C)C(NC(=O)N1CCN(c2ccc(Cl)cc2)CC1)C(=O)NC1CC1 (centres undefined) | 7.46 |
| COc1ccc(C(=O)N(C)Cc2nnc3ccccn23)c(OC)c1 | 24.6 |
| Cc1nn(C)cc1-c1cc(C(F)(F)F)c2c(C)nn(CC(=O)O)c2n1 | 34.1 |
| O=c1cc(Cn2ccnc2)nc2n1CCCN(Cc1ccsc1)C2 | -13.8 |
| CC1COCCN1Cc1nc(-c2cccc(Br)c2)no1 (centres undefined) | 32 |
| Cc1nnc(C(C)NCC2(c3c(F)cccc3F)CCCC2)o1 (centres undefined) | 9.79 |
| Cc1nc(C)n(CC2CCCN(c3ncnc4ccsc34)C2)n1 (centres undefined) | 28.8 |
| O=C([C@@H]1CCO[C@@H]2CCN(Cc3cccnc3)C[C@H]21)N1CCCCO1 | -26.6 |
| c1cc2n(n1)CC(CNCc1ccc(OC3CCCCC3)nc1)CN2 (centres undefined) | -39.3 |
| COc1cccc(CCNS(=O)(=O)c2ccc(NC(C)=O)cc2)c1 | -9.96 |
| CCn1cc(CN2CC3CCCN3C[C@H]2C)c(C)n1 (some centres undefined) | -7.87 |
| Cc1cc(C)n(CC2CCCN2CCCS(=O)(=O)N(C)C)n1 (centres undefined) | 0.632 |
| CC1CN(CC2CCCCC2)CCN1c1ccc2nncn2n1 (centres undefined) | -96.5 |
| CCOc1ccc2[nH]c(=O)c(CN3CCC(O)CC3)cc2c1 | -8.86 |
| O=C(COc1cccc2c1CCC2=O)NCCSc1ccccc1 | -30.6 |
| Cc1cc(C)nc(Nc2cccc(C3CCCN(C)C3)n2)n1 (centres undefined) | 1.38 |
| Cc1ccc(O)c(CNC2CCc3nc(C(C)C)nn3C2)n1 (centres undefined) | 1.45 |
| Cc1oncc1C(=O)N1CCC2(CCN(Cc3ccccn3)C2=O)C1 (centres undefined) | -12.9 |
| CCN(CC)C(=O)c1cc(C2CCCN2C)ccn1 (centres undefined) | 1.51 |
| CCc1cnc(N2CCC3(CC2)CN(c2cccnc2)C(=O)CO3)nc1 | -6.76 |
| C[C@H]1C[C@H]2CN(C(=O)c3ccncn3)CC[C@H]2O1 | -34.2 |
| Cc1cnn(CC2CCCCN2CCC(=O)Nc2cc(C)on2)c1 (centres undefined) | 5.5 |
| CC(C)(C)n1ncc2c1NC(=O)CC2c1ccsc1 (centres undefined) | -10.8 |
| CN(Cc1cn2ccccc2n1)C1CCCN(c2cccnn2)C1 (centres undefined) | -72.8 |

###

- target-under-test: Aspartate--tRNA(Asp/Asn) ligase (Mycobacterium tuberculosis (strain ATCC 25618 / H37Rv)) (UniProt P9WFW3); also: in the data most compounds retested in dose-response had high values
- Sequence (whole entry): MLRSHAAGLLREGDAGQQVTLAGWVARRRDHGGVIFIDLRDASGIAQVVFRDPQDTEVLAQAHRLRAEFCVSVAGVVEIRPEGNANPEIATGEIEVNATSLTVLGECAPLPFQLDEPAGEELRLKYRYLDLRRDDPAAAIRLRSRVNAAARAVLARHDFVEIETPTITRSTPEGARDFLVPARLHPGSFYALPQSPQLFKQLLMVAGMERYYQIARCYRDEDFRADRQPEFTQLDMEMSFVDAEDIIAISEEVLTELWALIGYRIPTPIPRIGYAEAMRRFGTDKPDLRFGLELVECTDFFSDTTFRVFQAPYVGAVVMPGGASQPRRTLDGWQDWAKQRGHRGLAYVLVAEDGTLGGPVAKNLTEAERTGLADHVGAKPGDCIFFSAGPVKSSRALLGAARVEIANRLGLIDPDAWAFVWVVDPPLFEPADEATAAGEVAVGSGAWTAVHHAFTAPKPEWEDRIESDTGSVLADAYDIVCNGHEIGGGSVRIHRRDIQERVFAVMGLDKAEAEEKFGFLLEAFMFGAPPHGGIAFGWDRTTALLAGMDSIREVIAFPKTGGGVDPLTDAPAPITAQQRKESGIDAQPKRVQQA
- method-notes: Assay for Asp RNA synthetase-1 from Mycobacterium tuberculosis
- Format: functional
- Design: scale not given: direction of the effect not stated beside the values
- condition-details: 30 µM

| molecule | unit-of-measurement | Percent Effect |
| --- | --- | --- |
| CNC(=O)c1ccc(CN(C(=O)c2scnc2C)C2CC2)cc1 | % | -2.83 |
| Cc1nc(C(=O)N2CCC(Cc3cnc4[nH]ccc4c3)C2)co1 (stereo not given) | % | 1.31 |
| N#Cc1ccc(S(=O)(=O)NC(=O)C2CC2)c(C(F)(F)F)c1 | % | 4.77 |
| CN1CC(c2ccccc2)CC2(CCN(CC(=O)N(C)C)CC2)C1 (stereo not given) | % | -3.52 |
| Cc1nc(NC(=O)CN2CCc3c(nc(C(C)C)n3C)C2)sc1C | % | -4.32 |
| COc1cccc(C(=O)NCC(O)c2cccs2)c1 (stereo not given) | % | -4.63 |
| CCCn1nc2c(cc1=O)CN(CCS(C)(=O)=O)CC2 | % | 5.96 |
| COc1cc(CNCc2ccnc(N3CCOCC3)c2)cc(Cl)c1OC | % | 6.73 |
| CC(C)N1CC(C(=O)NCCOc2ccc3c(c2)OCO3)CC1=O (stereo not given) | % | -3.6 |
| COCCN1CCCC1c1nccnc1Nc1nc(C)cs1 (stereo not given) | % | -3.52 |
| CCOC[C@@H]1CCC[C@@]12CN(Cc1nccs1)CCO2 | % | -0.28 |
| CNc1nc(CNC(=O)Nc2cccc(F)c2)cs1 | % | -1.08 |
| c1cc(CN2Cc3nnn(CC4CC4)c3C(COCC3CC3)C2)co1 (stereo not given) | % | -1.45 |
| CCOC1CCN(C(=O)c2c(Cl)c3ccccc3n2C)CC1 | % | -2.01 |
| CCc1nc(C2CCCN2C(=O)CCc2cccs2)no1 (stereo not given) | % | -0.641 |
| COc1ccc(CCC(=O)Nc2cccnc2N2CCCC2)cc1Br | % | -3.21 |
| COCCC(=O)N1C[C@H]2CN(Cc3cccc(C)n3)C(=O)[C@H]2C1 | % | 0.774 |
| Cc1cnc2c(S(=O)(=O)NCC3CCN(C4CC4)C3)cccc2c1 (stereo not given) | % | 3.65 |
| CSCCCN1CCn2nc(CNC(C)=O)cc2C1 | % | 3.05 |
| Cc1cc(=O)n(CC(=O)NCC2CCCO2)c(-c2ccc(F)cc2)n1 (stereo not given) | % | 5.94 |
| COc1ccccc1CC(=O)NS(=O)(=O)c1ccc(C(N)=O)cc1 | % | 1.21 |
| O=C(NCCC1=CCCCC1)NCc1nnc2n1CCC2 | % | 2.5 |
| O=C1NCCN(CC2CC2)C12CCN(Cc1ccco1)CC2 | % | 24.3 |
| Cc1nc(N2CCOCC2)nc2c1CCN(Cc1cccnc1)CC2 | % | 2.91 |
| CCn1cc(NC(=O)C2CCN(Cc3noc(C(C)C)n3)CC2)cn1 | % | 1.21 |

###

- target-under-test: Aspartate--tRNA(Asp/Asn) ligase (Mycobacterium tuberculosis (strain ATCC 25618 / H37Rv)); also: in the data most compounds retested in dose-response had high values
- method-notes: Assay for Asp RNA synthetase-1 from Mycobacterium tuberculosis
- Type: functional
- Parameters: scale not given: direction of the effect not stated beside the values
- condition-details: 30 µM

| compound | Percent Effect |
| --- | --- |
| CCc1nc(CN2CCN(C(=O)CCc3ccccc3)CC2)cs1 | -4.18% |
| COc1ccccc1CC(=O)NCc1c(C)nc2cc(=O)[nH]n2c1C | -0.878% |
| CC(=O)Nc1nc(CN2CCCCC2Cn2cccn2)cs1 (centres undefined) | 8.39% |
| CCOC(=O)C1CCN(C(=O)Cn2ccc3cc(Br)ccc32)CC1 | -2.06% |
| COc1ncccc1CN1CCn2c(Cn3cncn3)cnc2C1 | -2.81% |
| O=C1OC2(CCNCC2)CN1CC(=O)N1CCCC1c1ccco1 (centres undefined) | -0.636% |
| CCn1cnnc1C1CCN(C(=O)COc2ccccc2)CC1 | -1.18% |
| COc1ccc(OC)c(C2CCN(Cc3nc(C)n4ccccc34)C2)c1 (centres undefined) | -1.14% |
| Cc1cc(C)n(CC2CCCN2CCCS(=O)(=O)N(C)C)n1 (centres undefined) | 2.38% |
| COCc1cccc(NC(C)C(=O)N(C)Cc2cccc(F)c2)c1 (centres undefined) | -0.296% |
| COc1ccc(C(=O)C2CCCN(CCCn3cccn3)C2)c(OC)c1 (centres undefined) | -0.805% |
| Cc1oncc1C(=O)N1CCC2(CC1)CC(c1ccccc1)C(=O)N2C (centres undefined) | -1.78% |
| Cc1cccc(C)c1OCCNC(=O)NC(C)c1nncn1C (centres undefined) | -2.19% |
| Cc1cccc(N2CCN(CCCNC(=O)c3nccn3C)CC2)c1 | -3.22% |
| Cc1noc(C)c1CN1CC2(CCN(C(=O)c3c[nH]cn3)C2)CC1=O (centres undefined) | 0.582% |
| NCC1(c2cccc(Br)c2)CCOCC1 | 5.62% |
| Cc1nc(O)cc(C2CCN(Cc3cccc(F)c3F)C2)n1 (centres undefined) | -1.21% |
| CCC(=O)N1CCC(Cc2ccccc2-c2ccccc2)(C(N)=O)C1 (centres undefined) | -7.87% |
| COCc1nc2n(n1)CCCC2Nc1nc(C2CC2)ns1 (centres undefined) | 0.0804% |
| OCCOc1nc(-c2ccccc2Cl)no1 | -8.6% |
| COc1ccc(C2OC(COc3ccccc3Br)=NN2C(C)=O)cc1 (centres undefined) | 0.568% |
| CCS(=O)(=O)N1CCC2(CCC2NC(=O)c2ccn(C)c2)CC1 (centres undefined) | 1.6% |
| COCCCN(CCOC)C(=O)Nc1ccc(C)cc1C | 0.599% |
| O=C1C(NCc2nnc3n2CCCC3)CCCN1c1cccc(F)c1 (centres undefined) | 0.344% |
| CC(C)NC(=O)Cn1cc(-c2ccccc2)cn1 | -0.189% |
| c1coc(-c2noc(CN3CC(n4cccn4)C3)n2)c1 | -3.52% |
| C=C(Cl)CN1CCC(C(=O)c2cc(F)ccc2F)CC1 | -0.256% |
| CC[C@@H](CO)NC(=O)c1coc(COc2ccc(OC)cc2)n1 | 6.33% |
| O=C(c1cnco1)N1CCCC(Cc2cccc3ncccc23)C1 (centres undefined) | 3.23% |
| COCC1COCCC12CCN(C(=O)CCOc1ccccc1)CC2 (centres undefined) | 1.23% |
| O=C(Cc1ccccc1)N1CCN(Cc2noc(C3CC3)n2)CC1 | -2.26% |
| c1ncn(Cc2cnc3n2CCN(Cc2ccsc2)CC3)n1 | -1.22% |
| CCC(NC(=O)c1ccco1)c1ccccc1OCC(=O)N1CCCC1 (centres undefined) | 0.611% |
| CC(C)COC(C)C(=O)NCc1ccc(N(C)C)cc1 (centres undefined) | 5.65% |
| CCN(Cc1ccc2c(c1)OCO2)Cc1nc(C)no1 | 4.08% |
| COc1ccc(Cl)cc1NCC(=O)NCCc1ccccn1 | -0.954% |
| CCc1nc(CN2CCCC(NCc3nnc(C4CC4)o3)C2)no1 (centres undefined) | -2.05% |
| CCc1ncc2c(n1)CN(Cc1nc(-c3ccsc3)oc1C)CC2 | 2.25% |
| O=C(NCCOc1ccc2c(c1)CCC2)N1CCS(=O)(=O)CC1 | -1.48% |
| Cc1nc(C(C)(C)NC(=O)Nc2ccccc2)no1 | 0.805% |
| Cc1nc(CN2CCCCC2Cn2cncn2)nc2ccccc12 (centres undefined) | 1.73% |
| CCOCC1CN(Cc2cnn(C)c2)Cc2nn(C)cc21 (centres undefined) | -3.19% |
| CCc1csc(C2CCCN(C(=O)c3cnn(CC)c3)C2)n1 (centres undefined) | 0.0599% |
| O=C(NCc1ccoc1)Nc1ccc(CN2CCOC2=O)cc1 | -3.73% |
| CN(C)CC(=O)N1CCC2(CCN(Cc3ccccn3)C2=O)C1 (centres undefined) | -3.07% |
| CCCc1nc(C)c(C(=O)NCCN2CCN(CC)CC2)s1 | -0.278% |
| Cc1nc(C)n(CC2CCCN(Cc3nc(C4CC4)no3)C2)n1 (centres undefined) | 4.92% |
| Cc1nc(N2CCCC2)nc2c1CCN(Cc1ccco1)CC2 | 8.76% |
| CS(=O)(=O)N1CCCCCC1C1CCN(c2ncccc2C#N)CC1 (centres undefined) | -0.456% |
